Below, pKi values reported for HPK1 (Homo sapiens (Human)) across several publications.
pKi: −log10 of the molar value.

1. Cc1cccc(C)c1-c1cc2c(-c3ccc(N4CCN(C)CC4)cc3)n[nH]c2cn1 :: ≥ 7.00
2. COc1cccc(F)c1-c1cc2c(NC(=O)c3cnn(C)c3)n[nH]c2cn1 :: ≥ 7.00
3. Cc1n[nH]cc1-c1cnc2c(c1Cl)C1(CC=CC1)CN2 :: 6.73
4. Cc1cccc(F)c1-c1cc2c(NC(=O)c3ccc(N4CCN(C)CC4)cc3NC3CCC(C#N)C3)n[nH]c2cn1 (stereo not drawn) :: ≥ 7.00
5. Cn1cccc(-c2cccc(-c3cnc4c(c3Cl)C3(CC3)CN4)c2)c1=O :: 8.04
6. COc1cccc(F)c1-c1ncc2[nH]nc(-c3ccc(C(C)(C)C#N)cc3)c2n1 :: ≥ 7.00
7. Cn1cnnc1-c1ccc2[nH]cc(-c3cnc4c(c3)C3(CC3)CN4)c2c1 :: 6.89
8. CN(C)C(=O)c1c(N)ccc(-c2cnc3c(c2Cl)C2(CCC(CC#N)C2)CN3)c1F (stereo not drawn) :: 8.40
9. CN(C)C(=O)Cc1cccc2c(-c3cnc4c(c3Cl)C3(CC3)CN4)c[nH]c12 :: 7.17
10. N#Cc1cccc(-c2cnc3c(c2Cl)C2(CC=CC2)CN3)c1 :: 6.45

Need pKi for each of these compounds.
1. Cc1cccc(F)c1-c1cc2c(-c3cnn(C)c3)n[nH]c2cc1C#N
2. Cc1cc(C2CCCCN2)cc(F)c1-c1ncc2[nH]nc(-c3ccc(N4CCN(C)CC4)cc3)c2n1 (stereo not drawn)
3. COC1CCN(c2ccc(C(=O)Nc3n[nH]c4cnc(-c5cnn(C)c5C)cc34)cc2)CC1
4. Cn1cc(C(=O)Nc2cc(F)c(-c3cc4c(-c5cnn(C)c5)n[nH]c4cn3)c(F)c2)cn1
5. COc1cccc(F)c1-c1nccc(C(=O)Nc2ccc3sc(C)nc3c2N2C[C@@H](N)C[C@H]2CO)n1
6. Cc1cc(C2CCCN2)cc(F)c1-c1ncc2[nH]nc(-c3ccc(N4CCN(C)CC4)cc3)c2n1 (stereo not drawn)
7. CNCc1cc(C)c(-c2nc3c(-c4ccc(N5CCN(C)CC5)nc4)n[nH]c3cc2C#N)c(F)c1

["≥ 7.00", "≥ 7.00", "≥ 7.00", "≥ 7.00", "> 7.00", "≥ 7.00", "≥ 7.00"]
